Sourced from patent US10702504B2

# Measurement target: PHD-bromodomain of TRIM24 (Homo sapiens (Human), UniProt O15164)
# Sequence (O15164 824-1006): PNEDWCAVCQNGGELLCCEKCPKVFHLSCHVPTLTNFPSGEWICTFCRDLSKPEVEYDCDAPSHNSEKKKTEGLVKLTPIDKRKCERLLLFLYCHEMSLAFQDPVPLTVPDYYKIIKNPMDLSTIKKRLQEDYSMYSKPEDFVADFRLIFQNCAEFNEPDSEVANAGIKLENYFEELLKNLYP
# Test method notes: TRIM24 binding alpha assay
# Protocol conditions: Alpha Assay binding to TRIM24; compounds 50 μM to 0.002 μM
pIC50: −log10 of the molar value.
Quantity measured: pIC50

[in] Name the reported pIC50 value associated with the molecule CCCOc1cccc(Oc2cc3c(cc2NS(=O)(=O)c2cccc(C(=O)NCCOCCOCC(=O)N[C@H](C(=O)N4C[C@H](O)C[C@H]4C(=O)NCc4ccc(-c5scnc5C)cc4)C(C)(C)C)c2)n(C)c(=O)n3C)c1
[out] > 7.30

[in] What do we get for COc1ccc(S(=O)(=O)Nc2cc3c(cc2Oc2ccc(OCC(=O)NCCCOCCOCCOCCCNC(=O)COc4cccc5c4C(=O)N(C4CCC(=O)NC4=O)C5=O)cc2)n(C)c(=O)n3C)cc1OC (centres unmarked) ?
[out] < 6.30

[in] What do we get for CCCOc1cccc(Oc2cc3c(cc2NS(=O)(=O)c2cccc(C(=O)NCCOCCOCCOCC(=O)N[C@H](C(=O)N4C[C@H](O)C[C@H]4C(=O)NCc4ccc(-c5scnc5C)cc4)C(C)(C)C)c2)n(C)c(=O)n3C)c1 ?
[out] 7.00 to 7.30

[in] What do we get for COc1ccc(S(=O)(=O)Nc2cc3c(cc2Oc2ccc(OCC(=O)NCCCCNC(=O)COc4cccc5c4C(=O)N(C4CCC(=O)NC4=O)C5=O)cc2)n(C)c(=O)n3C)cc1OC (centres unmarked) ?
[out] < 6.30

[in] What do we get for COc1ccc(S(=O)(=O)Nc2cc3c(cc2Oc2ccc(OCC(=O)NCCCCCCCCNC(=O)COc4cccc5c4C(=O)N(C4CCC(=O)NC4=O)C5=O)cc2)n(C)c(=O)n3C)cc1OC (centres unmarked) ?
[out] < 6.30

* * *

# Measurement target: PHD-bromodomain of TRIM24 (Homo sapiens (Human))
# Test method notes: TRIM24 binding alpha assay
# Protocol conditions: Alpha Assay binding to TRIM24; compounds 50 μM to 0.002 μM
pIC50: −log10 of the molar value.
Measured pIC50 by item

Would you please look over these solved cases?
>>> reported_result("Cc1nc(S(=O)(=O)Nc2cc3c(cc2Oc2cccc(OCC(C)C)c2)n(C)c(=O)n3C)cn1C [Cmpd C, reference compound]")
"> 7.30"
>>> reported_result("Cc1nc(S(=O)(=O)Nc2cc3c(cc2Oc2cccc(OCC(=O)NCCCCCCCCNC(=O)COc4cccc5c4C(=O)N(C4CCC(=O)NC4=O)C5=O)c2)n(C)c(=O)n3C)cn1C (stereo not shown) [I-A8]")
"< 6.30"
>>> reported_result("Cc1nc(S(=O)(=O)Nc2cc3c(cc2Oc2cccc(OCC(=O)NCCCCNC(=O)COc4cccc5c4C(=O)N(C4CCC(=O)NC4=O)C5=O)c2)n(C)c(=O)n3C)cn1C (stereo not shown) [I-A7]")
"< 6.30"
>>> reported_result("CCCOc1cc(OCCCCN(C)C)cc(Oc2cc3c(cc2NS(=O)(=O)c2cccc(C(=O)NCCOCCOCCOCC(=O)N[C@H](C(=O)N4C[C@H](O)C[C@H]4C(=O)NCc4ccc(-c5scnc5C)cc4)C(C)(C)C)c2)n(C)c(=O)n3C)c1 [I-B4]")
"> 7.30"
>>> reported_result("CCCOc1cc(OCCCCN(C)C)cc(Oc2cc3c(cc2NS(=O)(=O)c2cccc(C(=O)NCCCOCCOCCOCCCNC(=O)COc4cccc5c4C(=O)N(C4CCC(=O)NC4=O)C5=O)c2)n(C)c(=O)n3C)c1 (stereo not shown) [I-A12]")
"> 7.30"
>>> reported_result("CCCOc1cccc(Oc2cc3c(cc2NS(=O)(=O)c2cccc(C(=O)NCCCCNC(=O)COc4cccc5c4C(=O)N(C4CCC(=O)NC4=O)C5=O)c2)n(C)c(=O)n3C)c1 (stereo not shown) [I-A4]")
"7.00 to 7.30"

[in] Name the reported pIC50 value associated with the compound CCCOc1cccc(Oc2cc3c(cc2NS(=O)(=O)c2cccc(C(=O)NCCCOCCOCCOCCCNC(=O)COc4cccc5c4C(=O)N(C4CCC(=O)NC4=O)C5=O)c2)n(C)c(=O)n3C)c1 (stereo not shown) [I-A6]
[out] > 7.30

[in] What do we get for CCCOc1cccc(Oc2cc3c(cc2NS(=O)(=O)c2cccc(C(=O)NCCOCCOCCOc4cc(-c5scnc5C)ccc4CNC(=O)[C@@H]4C[C@@H](O)CN4C(=O)[C@H](C(C)C)N4Cc5ccccc5C4=O)c2)n(C)c(=O)n3C)c1 [I-B1] ?
[out] 6.30 to 7.00

[in] What do we get for CCCOc1cc(OCCCCN(C)C)cc(Oc2cc3c(cc2NS(=O)(=O)c2cccc(C(=O)NCCCCNC(=O)COc4cccc5c4C(=O)N(C4CCC(=O)NC4=O)C5=O)c2)n(C)c(=O)n3C)c1 (stereo not shown) [I-A10] ?
[out] > 7.30

[in] What do we get for COc1ccc(Oc2cc3c(cc2NS(=O)(=O)c2ccc(OC)c(OC)c2)n(C)c(=O)n3C)cc1 [Cmpd A, reference compound] ?
[out] < 6.30

[in] What do we get for CCCOc1cccc(Oc2cc3c(cc2NS(=O)(=O)c2cccc(C(=O)NCCCCNC(=O)CC45CC6CC(CC(C6)C4)C5)c2)n(C)c(=O)n3C)c1 [Cmpd E, reference compound] ?
[out] 6.30 to 7.00

[in] What do we get for CCCOc1cccc(Oc2cc3c(cc2NS(=O)(=O)c2cccc(C(=O)NCCCCCCCCNC(=O)COc4cccc5c4C(=O)N(C4CCC(=O)NC4=O)C5=O)c2)n(C)c(=O)n3C)c1 (stereo not shown) [I-A5] ?
[out] 6.30 to 7.00
